Value source: patent US20110118131A1

The reader will find reported fold difference in affinity vs parental values listed item by item below.
target: T1, IL-1beta (UniProt P01584 117-269)
T1 construct: also called IL-1β
testDescription: Biacore
Could you give me the number in fold? Just the number is fine.

>  <binder>
XPA23 Fab, heavy chain Y107R (Fab, V domains shown) VH: EVQLLESGGGLVQPGGSLRLSCAASGFTFSKYFMFWVRQAPGKGLEWVSVISPSGGMTRYADSVKGRFTISRDNSKNTLYLQMNSLRAEDTAVYYCARVGYGGNSDRWGQGTLVTVSS VL: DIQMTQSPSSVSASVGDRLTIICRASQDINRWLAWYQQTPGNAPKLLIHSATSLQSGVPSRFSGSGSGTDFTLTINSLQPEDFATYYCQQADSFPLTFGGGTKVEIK

>  <fold difference in affinity vs parental, fold>
0.85

$$$$

Challenge: So what does the record say about fold difference in affinity vs parental for XPA23 Fab, heavy chain G100S (Fab, V domains shown) VH: EVQLLESGGGLVQPGGSLRLSCAASGFTFSKYFMFWVRQAPGKGLEWVSVISPSGGMTRYADSVKGRFTISRDNSKNTLYLQMNSLRAEDTAVYYCARVSYGGNSDYWGQGTLVTVSS VL: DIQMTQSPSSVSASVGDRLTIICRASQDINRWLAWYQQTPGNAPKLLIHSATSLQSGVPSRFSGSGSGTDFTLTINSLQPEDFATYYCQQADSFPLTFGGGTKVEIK ?
Response given: 2.8
